Collected literature values of pIC50 measured for Collagenase 3 (Homo sapiens).
pIC50: −log10 of the molar value.
observable: pIC50

- compound: "O=C1COc2ccc(CNC(=O)c3nc4ccc(C#Cc5ccccc5)cc4c(=O)[nH]3)cc2N1"
  experimental-system: "Collagenase 3 (Homo sapiens)"
  cmp: ">"
  result: 7.00
- compound: "CC(C)(C)c1noc(-c2cc(C(=O)NCc3ccc4c(c3)NC(=O)CO4)nc3c(F)cnn23)n1"
  experimental-system: "Collagenase 3 (Homo sapiens)"
  cmp: ">"
  result: 6.70
- compound: "CC#CCOc1ccc(SCC2(C(=O)NO)CCOCC2)cc1"
  experimental-system: "Collagenase 3 (Homo sapiens)"
  cmp: "="
  result: 6.02
- compound: "Cc1noc(-c2cc3cc(-c4nc(C(=O)NCc5ccc(C#N)cc5)[nH]c4C)ccc3[nH]2)n1"
  experimental-system: "Collagenase 3 (Homo sapiens)"
  cmp: "="
  result: 8.70
- compound: "CN1CCN(CCS(=O)(=O)N2CCN(S(=O)(=O)c3cc(F)c(Oc4ccc(Cl)cc4)c(F)c3)[C@@H](C(=O)NO)C2)CC1"
  experimental-system: "Collagenase 3 (Homo sapiens)"
  cmp: ">"
  result: 7.30
- compound: "Nc1c(N2CCc3ccc(CNC(=O)c4nc5scc(-c6ccco6)c5c(=O)[nH]4)cc3C2)c(=O)c1=O"
  experimental-system: "Collagenase 3 (Homo sapiens)"
  cmp: ">"
  result: 7.00
- compound: "O=C1COc2ccc(CNC(=O)c3nc4sc5c(c4c(=O)[nH]3)CCC3(C5)OCCO3)cc2N1"
  experimental-system: "Collagenase 3 (Homo sapiens)"
  cmp: ">"
  result: 7.00
- compound: "COCCNC(=O)CC1SC(c2ccc(Cl)cc2)N(C(Cc2ccc(OC(C)(C)C)cc2)C(=O)NO)C1=O (stereo not shown)"
  experimental-system: "Collagenase 3 (Homo sapiens)"
  cmp: "="
  result: 7.59
- compound: "CCOC(=O)N1CCN(CC(=O)N2CCN(S(=O)(=O)c3cc(F)c(Oc4ccc(Cl)cc4)c(F)c3)[C@@H](C(=O)NO)C2)CC1"
  experimental-system: "Collagenase 3 (Homo sapiens)"
  cmp: ">"
  result: 7.30
- compound: "CCOC(=O)C1CCc2sc3nc(C(=O)NCc4ccc5c(c4)CN(c4c(N)c(=O)c4=O)CC5)[nH]c(=O)c3c2C1 (stereo not shown)"
  experimental-system: "Collagenase 3 (Homo sapiens)"
  cmp: ">"
  result: 7.00
- compound: "O=C(NCc1ccc2c(c1)CCO2)c1nc2ccccc2c(=O)[nH]1"
  experimental-system: "Collagenase 3 (Homo sapiens)"
  cmp: ">"
  result: 7.00
- compound: "Cc1noc(-c2cc3cc(-c4cc(C(=O)NCc5ccnn5C)nn4C)ccc3[nH]2)n1"
  experimental-system: "Collagenase 3 (Homo sapiens)"
  cmp: "="
  result: 6.90
- compound: "COc1ccc(C2SC(CC(=O)Nc3ccccn3)C(=O)N2C(Cc2ccc(OC(C)(C)C)cc2)C(=O)NO)cc1 (stereo not shown)"
  experimental-system: "Collagenase 3 (Homo sapiens)"
  cmp: "="
  result: 7.28
- compound: "CNC(=O)[C@@H](NC(=O)c1ccc(-c2cccc(CNC(=O)c3cnccn3)c2)o1)C(C)C"
  experimental-system: "Collagenase 3 (Homo sapiens)"
  cmp: "="
  result: 7.49
- compound: "COc1ccc(CC2Sc3cccc(Cl)c3N(CC(=O)NO)C2=O)cc1 (stereo not shown)"
  experimental-system: "Collagenase 3 (Homo sapiens)"
  cmp: "="
  result: 5.44
- compound: "CNC(=O)[C@@H](NC(=O)c1ccc(-c2ccc(NC(=O)c3cccc(C)n3)cc2)o1)C1CC1"
  experimental-system: "Collagenase 3 (Homo sapiens)"
  cmp: "="
  result: 7.16
- compound: "O=C(O)[C@H]1[C@H](Cn2nnc3ccccc3c2=O)CC[C@@H]1C(=O)c1ccc(OCC2CCCC2)cc1 (racemic)"
  experimental-system: "Collagenase 3 (Homo sapiens)"
  cmp: "="
  result: 7.24
- compound: "O=C(NO)[C@H]1CN(C(=O)N2CCOCC2)CCN1S(=O)(=O)c1ccc(-c2cccc(F)c2)nc1"
  experimental-system: "Collagenase 3 (Homo sapiens)"
  cmp: ">"
  result: 7.30
- compound: "CC#CCOc1ccc(SC2(C(=O)NO)CCN(Cc3ccc(Br)cc3)CC2)cc1"
  experimental-system: "Collagenase 3 (Homo sapiens)"
  cmp: "="
  result: 5.83
- compound: "Cc1noc(-c2cc3cc(-c4nc(C(=O)NCc5ccc(C(=O)O)cc5)[nH]c4C)ccc3[nH]2)n1"
  experimental-system: "Collagenase 3 (Homo sapiens)"
  cmp: "="
  result: 9.70
- compound: "Cc1cc(COc2ccc(S(=O)(=O)N[C@@H]3CCNC[C@]3(O)C(=O)NO)cc2)c2ccccc2n1"
  experimental-system: "Collagenase 3 (Homo sapiens)"
  cmp: "<"
  result: 5.00
- compound: "C#CCOc1ccc(S(=O)(=O)C2(C(=O)NO)CCN(Cc3ccc(OC)cc3)CC2)cc1"
  experimental-system: "Collagenase 3 (Homo sapiens)"
  cmp: "="
  result: 8.28
- compound: "O=C1COc2ccc(CNC(=O)c3nc4ccc5c(c4c(=O)[nH]3)CCC5)cc2N1"
  experimental-system: "Collagenase 3 (Homo sapiens)"
  cmp: ">"
  result: 7.00
- compound: "CNC(=O)[C@@H](NC(=O)c1ccc(-c2ccc(OCc3cc(C)nn3C)cc2)o1)C1CCCCC1"
  experimental-system: "Collagenase 3 (Homo sapiens)"
  cmp: "="
  result: 8.22
- compound: "O=C(NO)[C@H]1CN(S(=O)(=O)NC(=O)N2CCOCC2)CCN1S(=O)(=O)c1cc(F)c(Oc2ccc(Cl)cc2)c(F)c1"
  experimental-system: "Collagenase 3 (Homo sapiens)"
  cmp: ">"
  result: 7.30
- compound: "CCOC(=O)c1cc2cc(-c3nc(C(=O)NCc4ccncc4)[nH]c3C)ncc2[nH]1"
  experimental-system: "Collagenase 3 (Homo sapiens)"
  cmp: "="
  result: 8.15
- compound: "Cc1noc(-c2cc3cc(-c4nc(C(=O)NC5CCOCC5)[nH]c4C)ccc3[nH]2)n1"
  experimental-system: "Collagenase 3 (Homo sapiens)"
  cmp: "="
  result: 6.97
- compound: "Nc1c(N2CCc3ccc(CNC(=O)c4cnc5ccccc5n4)cc3C2)c(=O)c1=O"
  experimental-system: "Collagenase 3 (Homo sapiens)"
  cmp: ">"
  result: 6.30
